Assay: chemical genetic growth profiling, strain panel (AID 1159580);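 further: tested at 20 µM; growth read once vehicle control cultures reached saturation at 30 °C; 1 = growth at the plate median or of vehicle wells; lower values mean less growth of the strain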
Settings: S. cerevisiae deletion strains, growth OD, locus YNL183C, strain NPR1, hits give low values
Among all 5,500 compounds or so, about 2,000 (36%) were called active. Not shown: some 18% with an inconclusive outcome. The list shows a part of the results.
quantity-kind: normalized growth
Write no unit; give the number alone.

Some molecules with recorded normalized growth:
- molecule: "CC(C)(C)c1csc(NC(=O)Nc2ccc(Cl)cc2)n1"
  normalized growth: 0.281
- molecule: "CC1(C)O[C@@H]2CC3C4C[C@H](F)C5=CC(=O)C=C[C@]5(C)[C@@]4(F)[C@@H](O)C[C@]3(C)[C@]2(C(=O)CO)O1 (stereo not given in full)"
  normalized growth: 0.975
- molecule: "C/C(=N/Nc1nc(C(C)(C)C)cs1)c1ccc(Cl)c(Cl)c1"
  normalized growth: 0.92
- molecule: "CCCc1cnc(N2CCN(CC(=O)N(c3ccccc3)C3CCCCC3)CC2)nc1"
  normalized growth: 1.04
- molecule: "COC(=O)C1=C(C)NC(C)=C(C(=O)OCC(C)C)C1c1ccccc1[N+](=O)[O-] (stereo not given)"
  normalized growth: 0.561

Now consider the entry below.
Lab note: measured normalized growth of O=c1c(-c2ccc(O)cc2)coc2cc(O)cc(O)c12 was 0.993

---

Assay: chemical genetic growth profiling, strain panel (AID 1159580);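 further: tested at 20 µM; growth read once vehicle control cultures reached saturation at 30 °C; 1 = growth at the plate median or of vehicle wells; lower values mean less growth of the strain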
Settings: S. cerevisiae deletion strains, growth OD, locus YML032C, strain rad52
In all, about 5,500 compounds went through this assay and about 2,000 (36%) were called active. Another 18% or so got no clear call; they are omitted. No stated cut-off is given here; in the data, active means normalized growth mostly below about 0.91 (no sharp cut-off); inconclusive means no clear call, values can overlap the other calls; inactive means mostly above about 0.92. Some of the results follow.
Write down one outcome, taken from active, inactive

- molecule: "NCCc1cccc(O)c1"
  cat: "inactive"

I would be grateful if you could indicate the recorded call for CC(=O)O[C@H]1C[C@@]2(C)[C@H](c3ccoc3)OC(=O)[C@H]3O[C@]32[C@@]2(C)C1[C@]1(C)C(C[C@H]2OC(C)=O)C(C)(C)[C@H](OC(C)=O)C[C@@H]1OC(C)=O (stereo partly drawn) .
inactive

Dear all, I need the recorded test outcome for Cc1cc(=O)c2c(O)c3c(cc2o1)OCC(C)CC3 (stereo not drawn) , thank you.
active

Hi, sorry to bother you, what did the test record for O=c1c2ccccc2[se]n1-c1ccccc1 ?
active

For CC(=O)Nc1cccc(O)c1 , what call appears in the results of this test?
inactive

Could you kindly confirm the outcome this assay logged for ClC(Cl)=C(c1ccc(Cl)cc1)c1ccc(Cl)cc1 ?
inactive

Please state the recorded outcome for this molecule: C[n+]1cc2c3c(ccc2c2ccc4cc5c(cc4c21)OCO5)OCO3
active

Assay outcome for C=C1C(N)CC2CC1C2(C)C (stereo not drawn) : what was it?
inactive

Kindly provide the recorded test outcome for the following molecule: CC(=O)Nc1ccc(O)cc1
inactive

What is the recorded call for this molecule in the test? CN(N=O)C(=O)N[C@@H]1[C@@H](O)[C@H](O)[C@@H](CO)O[C@@H]1O
inactive

GET /call?item= COc1ccc2c(=O)cc(-c3ccccc3OC)oc2c1 returns the recorded outcome of this test.
active

// return assay outcome for CC(C)[C@]12O[C@H]1[C@@H]1O[C@@]13[C@@]1(C)CCC4=C(COC4=O)[C@@H]1C[C@@H]1O[C@@]13C2=O
inactive

---

The reader will find reported normalized growth values listed item by item below.
Assay: chemical genetic growth profiling, strain panel (AID 1159580);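 further: tested at 20 µM; growth read once vehicle control cultures reached saturation at 30 °C; 1 = growth at the plate median or of vehicle wells; lower values mean less growth of the strain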
Settings: S. cerevisiae deletion strains, growth OD, locus YDR388W, hits give low values
Screen size: about 5,500 compounds; about 2,000 (36%) were called active. About 18% were inconclusive and are not listed. The list shows a part of the results.

Known results for compounds:
- compound: "CC(C)[C@]12O[C@H]1[C@@H]1O[C@@]13[C@@]1(C)CCC4=C(COC4=O)[C@@H]1C[C@@H]1O[C@@]13C2=O"
  meas-value: "0.996 (inactive)"
- compound: "CC1(C)O[C@@H]2CC3C4C[C@H](F)C5=CC(=O)C=C[C@]5(C)[C@@]4(F)[C@@H](O)C[C@]3(C)[C@]2(C(=O)CO)O1 (stereo not given in full)"
  meas-value: "1.01 (inactive)"
- compound: "CNCCC=C1c2ccccc2CCc2ccccc21"
  meas-value: "1.02 (inactive)"
- compound: "CN(C)CCC=C1c2ccccc2CCc2ccccc21"
  meas-value: "1 (inactive)"
- compound: "CC(=O)O.CC(=O)O.[Cd]"
  meas-value: "0.0738 (active)"
- compound: "CN(C)CC/C=C1/c2ccccc2COc2ccccc21"
  meas-value: "1.03 (inactive)"
- compound: "NS(=O)(=O)c1cc2c(cc1C(F)(F)F)NCNS2(=O)=O"
  meas-value: "0.998 (inactive)"
- compound: "CN(C)CCC=C1c2ccccc2C=Cc2ccccc21"
  meas-value: "0.959 (inactive)"

response.value for C=C1C2CC[C@@]3(C)[C@H](c4ccoc4)OC(=O)C[C@]13O[C@H]1CC(=O)C(C)(C)[C@H](C(O)C(=O)OC)[C@@]21C (stereo not given in full) (field: normalized growth) = 1.01 (inactive)

The compound OC1C(O)C(O)C(O)C(O)C1O (stereo not given) showed normalized growth equal to 0.989 (inactive)
